These measurements were taken from patent US12673054B2.

tested on: MIA PaCa-2 cells; test: Anti-Cancer Assay (MIA PaCa-2); type: cell-based; conditions: Homo sapiens, 240 h, 10 days, range given with mixed units (pM to nM), read-out: IC50 (inhibition of cell viability), activity range
reported.endpoint: IC50

Cc1nc(N)nc2c1ccn2[C@@H]1C=C(COc2cc(F)c3cc(Cl)c(N)nc3c2)[C@@H](O)[C@H]1O :: 401 to 30000 pM
Cc1nc(N)c2ccn([C@@H]3C=C(COc4cc(F)c5cc(Cl)c(N)nc5c4)[C@@H](O)[C@H]3O)c2n1 :: 401 to 30000 pM
Cc1nc(N)nc2c1cnn2[C@@H]1C=C(CCc2cc(F)c3cc(Cl)c(N)nc3c2)[C@@H](O)[C@H]1O :: 401 to 30000 pM
